Assay: qHTS Assay for Lipid Storage Modulators in Drosophila S3 Cells;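 further: cells counted by Cell Tracker Red CMTPX staining in the red channel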
Settings: BODIPY lipid droplet fluorescence, 18-24 h, cells fed with added oleic acid; measured here: cell count max response
Screen size: about 320,000 compounds; about 2,100 (0.66%) were called active. Another 53% or so got no clear call; they are omitted. The full list was thinned out, with actives kept by preference.
Reported cell number change values for a set of compounds
Value kind: cell number change (%)

[[record]]
compound = "CNC(=O)C1CCC(=O)N1Cc1ccccc1Cl (configuration not stated)"
reading = -10.4

[[record]]
compound = "CC(C)NC(=O)[C@]1(C)CCC[C@@]2(C)C3CC[C@@]4(C)C[C@]3(CCC21)CC4=O (some centres not stated)"
reading = -16.5

[[record]]
compound = "COc1cccc(NC(=O)CN(C)C(=O)c2ccccc2-c2nc3ccccc3s2)c1"
reading = -6.15

[[record]]
compound = "O=C(Nc1ccc(Cl)cc1)C1CCC(=O)N1Cc1ccccc1Cl (configuration not stated)"
reading = -16.5

[[record]]
compound = "CCC(C)NCCCOc1cc(Cl)ccc1Cl (configuration not stated)"
reading = 12.7

[[record]]
compound = "CCOc1ccc(OCC(=O)Nc2ccc(S(=O)(=O)Nc3cc(C)nc(C)n3)cc2)cc1"
reading = -4.96

[[record]]
compound = "COc1ccc(CNc2ncccn2)cc1OC"
reading = 2.02

[[record]]
compound = "CCN(CC)C(c1ccc(F)cc1)c1nnnn1CC1CCCO1 (configuration not stated)"
reading = 4.03

[[record]]
compound = "O=C(CC(Sc1ccc(Br)cc1)C(=O)O)c1ccc(F)cc1 (configuration not stated)"
reading = -1.05

[[record]]
compound = "COC(=O)COc1ccc(S(=O)(=O)Nc2ccc(NC(C)=O)cc2)cc1"
reading = -0.0647

[[record]]
compound = "Cc1cc(C)nc(NS(=O)(=O)c2ccc(NC(=O)CN3C(=O)S/C(=C\\c4ccccc4)C3=O)cc2)n1"
reading = 8.32

[[record]]
compound = "Cc1ccc(C)c(NC(=S)NCc2cccs2)c1"
reading = -1.36

[[record]]
compound = "COc1ccc(NC(=O)C2CCCN2c2nn3c(=O)cc(C)nc3s2)cc1 (configuration not stated)"
reading = 13.8

[[record]]
compound = "Cc1cc(NC(=O)CSc2nc(=O)n3cc(Cl)ccc3n2)no1"
reading = 13.5

[[record]]
compound = "CCN(CC)C(c1ccc(F)cc1)c1nnnn1C1CCCCC1 (configuration not stated)"
reading = -7.83

[[record]]
compound = "Cc1cc(NS(=O)(=O)c2ccc(NC(=O)CCCC(=O)O)cc2)nc(C)n1"
reading = -5.64

[[record]]
compound = "Cc1cc(=O)n2nc(N3CCCC(C(=O)NCc4ccccc4C)C3)sc2n1 (configuration not stated)"
reading = 0.288

[[record]]
compound = "CCOC(=O)N1CCC(NC(=O)c2ccc3c(c2)N(C)C(=O)/C(=C/c2cccc(OC)c2)S3)CC1"
reading = -26

[[record]]
compound = "CC(C)(C)CNC(=O)[C@]1(C)CCC[C@@]2(C)C3CC[C@@]4(C)C[C@]3(CCC21)CC4=O (some centres not stated)"
reading = -13.8

[[record]]
compound = "COCC(=O)Nc1ccc(S(=O)(=O)Nc2cc(C)nc(C)n2)cc1"
reading = -33.4

[[record]]
compound = "CCN(CC)CCC(c1ccc(N(C)C)cc1)c1c(OC)cc(OC)c2c(-c3ccccc3)cc(=O)oc12 (configuration not stated)"
reading = -6.71

[[record]]
compound = "COc1cc(S(=O)(=O)NCc2ccccn2)c(OC)cc1Cl"
reading = 4.19

